- test_details: Toxicity liver stage against HepG2, at 10uM
- Type: cell-based
- Design: test concentration 10 uM, cell line HepG2-A16-CD81EGFP
- experimental_parameters: human, HepG2-A16-CD81EGFP cells; read-out: INHIBITION
Can you tell me cytotoxicity at 10 µM for the items I'm about to list?
Dear colleague, please return just the value in %, with no unit written.

Give me measured cytotoxicity at 10 µM, please, for this molecule: COCc1cccc(NC(C)C(=O)N(C)Cc2cccc(F)c2)c1 (centres undefined) 12.2

Give me measured cytotoxicity at 10 µM, please, for this molecule: `CC(C)c1noc(CN2CCN(C(=O)c3ccncc3F)CC2)n1` -10.9

Give me measured cytotoxicity at 10 µM, please, for this molecule: `CC(C)NC(=O)NC[C@H]1C[C@@H]2CCN1C[C@@H]2CN(C)c1ccccc1` 1.95

Give me measured cytotoxicity at 10 µM, please, for this molecule: COc1cc(C(C)NCc2scnc2C)ccc1SC(F)F (centres undefined) 36.8

Give me measured cytotoxicity at 10 µM, please, for this molecule: `Cc1cnc(C(=O)N2C[C@@H]3[C@@H](C2)OCC(=O)N3CC2CCCC2)cn1` -3.78

Give me measured cytotoxicity at 10 µM, please, for this molecule: Cc1noc(C)c1CN(Cc1ccccc1)C(C)CN1CCOCC1 (centres undefined) 7.97

Give me measured cytotoxicity at 10 µM, please, for this molecule: N#Cc1cc2c(=O)n(CC(O)C(F)(F)F)ccc2[nH]c1=O (centres undefined) -1.99

Give me measured cytotoxicity at 10 µM, please, for this molecule: `Cc1c(NC(=O)N(C)CCn2cnnc2)cccc1OC1CCCC1` -0.509

Give me measured cytotoxicity at 10 µM, please, for this molecule: `O=C(NC1CC1)[C@H]1C[C@H]2OCC[C@H]2N(Cc2cccc3ccccc23)C1` 2.64

* * *

- test_details: Toxicity liver stage against HepG2, at 10uM
- Format: cell-based
- Parameters: test concentration 10 uM, cell line HepG2-A16-CD81EGFP
- experimental_parameters: human, HepG2-A16-CD81EGFP cells; read-out: INHIBITION
attribute_measured: cytotoxicity at 10 µM (%)
Dear colleague, please return just the value in %, with no unit written.

Give me measured cytotoxicity at 10 µM, please, for this compound: `CC(C)(C)c1cnc(CN2CCCS2(=O)=O)o1` 2.07

Give me measured cytotoxicity at 10 µM, please, for this compound: `O=C(NCCc1nccs1)N1CCC(n2cccc2)CC1` 5.87

Give me measured cytotoxicity at 10 µM, please, for this compound: Cc1nc(CN2CCCCC2CCc2ccc(O)cc2)co1 (stereo not given) 2.72

Give me measured cytotoxicity at 10 µM, please, for this compound: O=C(c1ncoc1C1CCCO1)N1CCCC2(CCCCC2)C1 (stereo not given) -5.14

Give me measured cytotoxicity at 10 µM, please, for this compound: `COCCCNc1c(C#N)c2c(c3nncn13)CN(C)CC2` 5.86

Give me measured cytotoxicity at 10 µM, please, for this compound: Cc1cnc(C(=O)N2CCCCC2c2ccc(CN(C)C)cc2)cn1 (stereo not given) -2.46

Give me measured cytotoxicity at 10 µM, please, for this compound: `Cc1nnc([C@H]2CC[C@@H]3[C@@H](CCN3CC3CCOCC3)O2)o1` 10.1

Give me measured cytotoxicity at 10 µM, please, for this compound: CCc1ocnc1C(=O)N1CCC2(CC1)OCC(C)O2 (stereo not given) 4.44

Give me measured cytotoxicity at 10 µM, please, for this compound: `CC(C)CCC(=O)N1CC[C@@H]2[C@H](CC1)N(S(C)(=O)=O)CCS2(=O)=O` 3.7

Give me measured cytotoxicity at 10 µM, please, for this compound: CCC(c1nc(C(C)C)nn1-c1ccccn1)n1cccn1 (stereo not given) 5.66

Give me measured cytotoxicity at 10 µM, please, for this compound: O=C(C1CC2(CCNCC2)CN1)N1CCN(c2cccc(Cl)c2Cl)CC1 (stereo not given) -13.9

Give me measured cytotoxicity at 10 µM, please, for this compound: O=C(NCC1CC1)C1CN(C(=O)Cc2cccs2)CC12CCOCC2 (stereo not given) 4.76

Give me measured cytotoxicity at 10 µM, please, for this compound: CCNc1ncc(C(=O)NC2CCSC2)cn1 (stereo not given) -8.85

Give me measured cytotoxicity at 10 µM, please, for this compound: `O=C(c1cnccn1)N1C[C@@H]2[C@@H](C1)OCC(=O)N2CC1CCCC1` 1.58

Give me measured cytotoxicity at 10 µM, please, for this compound: `O=C1[C@H]2CN(CC3CCOCC3)C[C@H]2CN1Cc1cccc(F)c1` -118

Give me measured cytotoxicity at 10 µM, please, for this compound: `CO[C@@H]1CN(c2ccccc2)S(=O)(=O)[C@@]12CCN(C(=O)N(C)C)C2` 10.1

Give me measured cytotoxicity at 10 µM, please, for this compound: `Cc1nc2ccccn2c1CN1C[C@@H](CN(C)C)[C@@H](CO)C1` 0.743

Give me measured cytotoxicity at 10 µM, please, for this compound: `c1ncc2c(n1)CN(Cc1nc(-c3ccoc3)no1)CC2` -10.2

Give me measured cytotoxicity at 10 µM, please, for this compound: CN1CCOC(CNC(=O)CCc2cc(F)ccc2F)C1 (stereo not given) 2.32

Give me measured cytotoxicity at 10 µM, please, for this compound: `CCn1ccnc1CN1CCN(CC(=O)NC(C2CC2)C2CC2)CC1` -19.4
